// values below are reported combination Emax
# Test system: NCI-H841 (Small Cell Lung Carcinoma)
# experiment_description: combination Emax (second highest fraction inhibited in the dose matrix, 72 h); higher = more inhibition; extreme values may be limits of the assay

{"compound": "N#Cc1cnc(Nc2cc(NC[C@H]3CNCCO3)c(C(F)(F)F)cn2)cn1 [SRA737] + CCc1c2c(nc3ccc(O)cc13)-c1cc3c(c(=O)n1C2)COC(=O)[C@]3(O)CC [SN-38] (first compound max 10 µM, 7x7, partner max 0.3 µM)", "combination Emax": 0.62}

(Q) Reported combination Emax, compound Cn1cnc2c(F)c(Nc3ccc(Br)cc3Cl)c(C(=O)NOCCO)cc21 [Selumetinib] + CC(C)n1c(=O)n(C)c2cnc3cc(F)c(-c4ccc(OCCCN5CCCCC5)nc4)cc3c21 [AZD1390] (first compound max 10 µM, 7x7, partner max 0.3 µM) : ____
(A) 0.0728
